The values you see were collected from patent US20240066138A1.

Test system: Skov-3
Test: Cell viability assay (CELLCOUNTING-LITE)
Format: cell-based
Details: Homo sapiens, SK-OV-3; Skov-3 cells; incubated for 4 or 5 days; Table 1; read-out: IC50
measurement name: pIC50
Give bare numbers, as −log10 of the molar value.

Would you mind telling me what pIC50 value was observed for CC[C@@]1(O)C(=O)OCc2c1cc1n(c2=O)Cc2c-1nc1cc(F)c(C)cc1c2C=NOCCCNC(=O)CO ?
7.96

====

Test system: A375
Experiment: Cell viability assay (CELLCOUNTING-LITE)
Format: cell-based
Conditions: Homo sapiens, A-375; A375 cells; incubated for 4 or 5 days; Table 1; read-out: IC50
Method: Cancerous cells (5,000/well) were seeded in a culture media in a 96-well flat-bottom plate. A compound was prepared by a 3-fold serial dilution and added into each cell solutions. The cells were incubated for 4 or 5 days at 37° C. under 5% CO2. CELLCOUNTING-LITE was added to each well, mixed, and incubated for 10 min at room temperature. The solution in each cell was transferred to a 96-well white opaque plate for reading.
measurement name: pIC50
Numbers only, as −log10 of the molar value.

Endpoint output: pIC50 of CC[C@@]1(O)C(=O)OCc2c1cc1n(c2=O)Cc2c-1nc1cc(F)c(C)cc1c2C=NOCCCNC(=O)CO . Value?
8.16

====

Test system: Raji
Assay: Cell viability assay (CELLCOUNTING-LITE)
Assay type: cell-based
Details: Homo sapiens; Raji cells; incubated for 4 or 5 days; Table 1; read-out: IC50
measurement name: pIC50
Numbers only, as −log10 of the molar value.

For the molecule shown here, CC[C@@]1(O)C(=O)OCc2c1cc1n(c2=O)Cc2c-1nc1cc(F)c(C)cc1c2C=NOCCCNC(=O)CO , give the reported pIC50.
9.24

====

Test system: H226
Test: Cell viability assay (CELLCOUNTING-LITE)
Assay type: cell-based
Conditions: Homo sapiens, NCI-H226
Would you kindly list pIC50 for each of these compounds?
One number for each entry, as −log10 of the molar value.

CC[C@@]1(O)C(=O)OCc2c1cc1n(c2=O)Cc2c-1nc1cc(F)c(C)cc1c2C=NOCC(C)CNC(=O)CO (mixture of isomers): 6.40

Okay, next one:
Identify the measured pIC50 of CC[C@@]1(O)C(=O)OCc2c1cc1n(c2=O)Cc2c-1nc1cc(F)c(C)cc1c2C=NOCCNC(=O)CO for H226.
6.82

====

System: KB
Experiment: Cell viability assay (CELLCOUNTING-LITE)
Format: cell-based
Conditions: Homo sapiens; KB cells; incubated for 4 or 5 days; Table 1; read-out: IC50
measurement name: IC50 (µM)
Numbers only, in µM.

I would be grateful if you could share the reported IC50 for CC[C@@]1(O)C(=O)OCc2c1cc1n(c2=O)Cc2c-1nc1cc(F)c(C)cc1c2C=NOCCCNC(=O)CO .
0.019
